Tested on: Clostridium bolteae
runDescription: Antibacterial activity against Clostridium bolteae by CLSI M11-A6 agar dilution method
Format: functional
testSettings: Enterocloster bolteae

moleculeSmiles: CCCCCCCCCC(=O)N[C@@H](Cc1c[nH]c2ccccc12)C(=O)N[C@H](CC(N)=O)C(=O)N[C@@H](CC(=O)O)C(=O)N[C@@H]1C(=O)NCC(=O)N[C@@H](CCCN)C(=O)N[C@@H](CC(=O)O)C(=O)N[C@H](C)C(=O)N[C@@H](CC(=O)O)C(=O)NCC(=O)N[C@H](CO)C(=O)N[C@@H]([C@H](C)CC(=O)O)C(=O)N[C@@H](CC(=O)c2ccccc2N)C(=O)O[C@@H]1C
unitsText: µg/mL
MIC90: 4

moleculeSmiles: CN[C@H](CC(C)C)C(=O)N[C@H]1C(=O)N[C@@H](CC(N)=O)C(=O)N[C@H]2C(=O)N[C@H]3C(=O)N[C@H](C(=O)N[C@H](C(=O)O)c4cc(O)cc(O)c4-c4cc3ccc4O)[C@H](O)c3ccc(c(Cl)c3)Oc3cc2cc(c3O[C@@H]2O[C@H](CO)[C@@H](O)[C@H](O)[C@H]2O[C@H]2C[C@](C)(N)[C@H](O)[C@H](C)O2)Oc2ccc(cc2Cl)[C@H]1O
unitsText: µg/mL
MIC90: 2

moleculeSmiles: CCC[C@@H]1C[C@@H](C(=O)N[C@@H]([C@H]2O[C@H](SC)[C@H](O)[C@@H](O)[C@H]2O)[C@H](C)Cl)N(C)C1
unitsText: µg/mL
MIC90: 4

moleculeSmiles: CC(=O)NC[C@H]1CN(c2ccc(N3CCOCC3)c(F)c2)C(=O)O1
unitsText: µg/mL
MIC90: 4

moleculeSmiles: CCCCCCCCCCNCCN[C@@]1(C)C[C@H](O[C@H]2[C@H](Oc3c4cc5cc3Oc3ccc(cc3Cl)[C@@H](O)[C@@H](NC(=O)[C@@H](CC(C)C)NC)C(=O)N[C@@H](CC(N)=O)C(=O)N[C@H]5C(=O)N[C@H]3C(=O)N[C@H](C(=O)N[C@H](C(=O)O)c5cc(O)c(CNCP(=O)(O)O)c(O)c5-c5cc3ccc5O)[C@H](O)c3ccc(c(Cl)c3)O4)O[C@H](CO)[C@@H](O)[C@@H]2O)O[C@@H](C)[C@H]1O
unitsText: µg/mL
MIC90: 8
